Overview of recorded aptazyme ON/OFF ratio for various variants
B1: Pistol ribozyme (parent)
chain: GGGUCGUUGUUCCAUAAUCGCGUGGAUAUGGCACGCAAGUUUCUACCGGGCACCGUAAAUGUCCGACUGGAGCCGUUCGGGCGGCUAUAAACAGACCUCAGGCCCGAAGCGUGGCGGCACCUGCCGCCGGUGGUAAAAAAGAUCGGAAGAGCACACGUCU

# Variants of: B1
# Measurement notes: aptazyme ON/OFF ratio, guanine; higher = stronger switching; co-transcriptional cleavage with and without guanine
Number only, please.

> print(dat)
                      mutation            metric.name  result.value
1   U7G U8G G9C U10A U11G C13G  aptazyme ON/OFF ratio          1.03
2  U7A U8A U10G U11G C12G C13A  aptazyme ON/OFF ratio          1.07
3       U7C G9U U10C C12U C13A  aptazyme ON/OFF ratio          1.08
4            U8A G9U U11A C12G  aptazyme ON/OFF ratio          1.09
5        U7G U8G G9A C12U C13U  aptazyme ON/OFF ratio          1.41

Query string: Entry U7C U10G U11G C12U C13U needs its aptazyme ON/OFF ratio filled in; supply it.
Result string: 1.3

Query string: // Input: U7A U8A G9U U10A U11C C13G . Output its aptazyme ON/OFF ratio only.
Result string: 1.1

Query string: Give aptazyme ON/OFF ratio for U7G U8A G9C U10G C12G
Result string: 1.06

Query string: Give recorded aptazyme ON/OFF ratio. U7A U8A G9A U10G U11A C12A C13U
Result string: 1.2
